Reference for the values: patent US5238935A

# Measured on: ACAT (Rattus norvegicus)
# Construct: Rat liver microsomes are used as the source of ACAT; from tissue; host or cells: rat liver microsomes
# Assay method text: ACAT assay (in vitro)
# Type: biochemical
# Measurement conditions: Dose 25 μM; rat liver microsomes; read-out: ACAT Inhibition Screen % Inhibition
Known inhibition at 25 µM of a selection of molecules
Form entry: value (%) — number only.

Some molecules with known inhibition at 25 µM results, for comparison:
**Query** Input CCCCCCCC/C=C\CCCCCCCC(=O)N1CCc2cc(OC)c(OC)cc2C1Cc1ccccc1 (stereo not drawn) , output reported inhibition at 25 µM.
**Result** 63

**Query** Input CCCCCCCC/C=C\CCCCCCCC(=O)N1Cc2cc(OC)c(OC)cc2CC1c1ccccc1 (stereo not drawn) , output reported inhibition at 25 µM.
**Result** 86

Now consider the entry below.
**Query** Input CCCCCCCC/C=C\CCCCCCCC(=O)N1CCc2cc(O)c(O)cc2C1Cc1ccccc1 (stereo not drawn) , output reported inhibition at 25 µM.
**Result** 73

---

Known pIC50 of a selection of compounds
# Measured on: ACAT (Rattus norvegicus, UniProt Q7TQM4)
# Sequence (Q7TQM4 1-524): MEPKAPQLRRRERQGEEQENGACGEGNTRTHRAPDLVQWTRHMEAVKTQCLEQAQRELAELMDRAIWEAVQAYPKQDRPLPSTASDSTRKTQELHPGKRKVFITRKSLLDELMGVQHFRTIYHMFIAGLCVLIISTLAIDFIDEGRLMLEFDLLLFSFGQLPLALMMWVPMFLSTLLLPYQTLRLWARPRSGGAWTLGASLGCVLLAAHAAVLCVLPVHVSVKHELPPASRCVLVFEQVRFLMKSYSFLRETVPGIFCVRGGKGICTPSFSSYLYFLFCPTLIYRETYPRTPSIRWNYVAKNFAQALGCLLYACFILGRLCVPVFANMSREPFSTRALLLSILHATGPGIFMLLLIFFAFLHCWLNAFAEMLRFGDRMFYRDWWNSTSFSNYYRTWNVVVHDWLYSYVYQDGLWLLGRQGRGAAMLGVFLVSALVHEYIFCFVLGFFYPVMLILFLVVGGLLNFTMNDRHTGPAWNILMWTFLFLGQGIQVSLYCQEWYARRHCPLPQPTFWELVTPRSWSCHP
Just so you know, pIC50 here is -log10 of the concentration in molar units; reply with that number alone.

**Query** Input CCCCCCCC/C=C/CCCCCCCC(=O)N1CCc2cc(OC)c(OC)cc2C1c1ccccc1 (centres unmarked) , output reported pIC50.
**Result** 5.10

Now consider the entry below.
**Query** Input CCCCCCCC/C=C\CCCCCCCC(=O)N1CCc2cc(OC)c(OC)cc2C1 [R3=H, R4=H, R5=H, R2a=CH3O, R2b=CH3O] , output reported pIC50.
**Result** 6.13

---

# Measured on: ACAT (Rattus norvegicus, UniProt Q7TQM4)
# Construct: Rat liver microsomes are used as the source of ACAT; from tissue; host or cells: rat liver microsomes
# Sequence (Q7TQM4 1-524): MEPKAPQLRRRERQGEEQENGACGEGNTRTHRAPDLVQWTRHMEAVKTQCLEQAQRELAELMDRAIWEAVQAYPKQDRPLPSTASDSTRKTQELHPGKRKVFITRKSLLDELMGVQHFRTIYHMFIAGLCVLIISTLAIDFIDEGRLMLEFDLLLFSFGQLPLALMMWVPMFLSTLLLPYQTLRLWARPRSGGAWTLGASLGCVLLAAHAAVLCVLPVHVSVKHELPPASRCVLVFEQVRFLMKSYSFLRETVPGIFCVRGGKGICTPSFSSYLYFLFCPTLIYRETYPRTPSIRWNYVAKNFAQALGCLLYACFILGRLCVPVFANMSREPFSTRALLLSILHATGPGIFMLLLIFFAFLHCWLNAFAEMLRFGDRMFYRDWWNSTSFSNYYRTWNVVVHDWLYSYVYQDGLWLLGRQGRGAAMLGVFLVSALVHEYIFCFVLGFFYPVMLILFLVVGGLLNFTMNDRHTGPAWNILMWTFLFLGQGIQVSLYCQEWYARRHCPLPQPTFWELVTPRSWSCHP
# Assay method text: ACAT assay (in vitro)
# Format: biochemical
# Measurement conditions: Dose 25 μM; rat liver microsomes; read-out: ACAT Inhibition Screen % Inhibition
Readout type: inhibition at 25 µM (%)
Form entry: value (%) — number only.

Some compounds with known inhibition at 25 µM results, for comparison:
**Query** Input CCCCCCCC/C=C\CCCCCCCC(=O)N1CCc2cc(OC)c(OC)cc2C1Cc1ccc(OC)c(OC)c1 (stereo not drawn) , output reported inhibition at 25 µM.
**Result** 91

**Query** Input CCCCCCCC/C=C\CCCCCCCC(=O)N1CCc2cc(C)c(OC)cc2C1CCc1ccc(Cl)cc1 (stereo not drawn) , output reported inhibition at 25 µM.
**Result** 4

**Query** Input CCCCCCCC/C=C\CCCCCCCC(=O)N1CCc2ccccc2C1Cc1ccccc1 (stereo not drawn) , output reported inhibition at 25 µM.
**Result** 81

**Query** Input CCCCCCCC/C=C\CCCCCCCC(=O)N1Cc2cc(OC)c(OC)cc2CC1c1ccc(OC)c(OC)c1 (stereo not drawn) , output reported inhibition at 25 µM.
**Result** 67

**Query** Input CCCCCCCC/C=C\CCCCCCCC(=O)N1CCc2cc(OC)c(OC)cc2C1 , output reported inhibition at 25 µM.
**Result** 100

Now consider the entry below.
**Query** Input CCCCCCCC/C=C\CCCCCCCC(=O)N1Cc2cc(OC)c(OC)cc2C(c2ccccc2)C1 (stereo not drawn) , output reported inhibition at 25 µM.
**Result** 83
